// merged dataset of Ki values, system = Vasopressin V2 receptor (Rattus norvegicus), multiple refs
measured-metric: Ki (nM)

O=C(/C=C1/c2ccccc2N(C(=O)c2ccc(NC(=O)c3ccccc3-c3ccccc3)cc2)CCC1(F)F)NCc1ccccn1; 0.4

(1) Cc1nnc(-c2ccc(-c3ccccc3)cc2)n1-c1ccccc1OCCCCCCN1CCC(N2CCCCC2)CC1
(2) CC[C@H](C)[C@@H]1NC(=O)[C@@H](Cc2ccccc2)NC(=O)[C@@H]2CCCN2C(=O)[C@@H](Cc2ccccc2)N(C)C(=O)[C@@H]2CCCCN2C(=O)[C@H]2CCCCN2C1=O
input: Pick one: 1 or 2 . Which has the bigger Ki number? Output the label that corresponds to your choice.
output: 2
(2: 1600 nM, 1: 1010 nM)

----------
// merged dataset of Ki values, system = Vasopressin V2 receptor (Rattus norvegicus, UniProt Q00788), multiple refs
Sequence (Q00788 whole entry): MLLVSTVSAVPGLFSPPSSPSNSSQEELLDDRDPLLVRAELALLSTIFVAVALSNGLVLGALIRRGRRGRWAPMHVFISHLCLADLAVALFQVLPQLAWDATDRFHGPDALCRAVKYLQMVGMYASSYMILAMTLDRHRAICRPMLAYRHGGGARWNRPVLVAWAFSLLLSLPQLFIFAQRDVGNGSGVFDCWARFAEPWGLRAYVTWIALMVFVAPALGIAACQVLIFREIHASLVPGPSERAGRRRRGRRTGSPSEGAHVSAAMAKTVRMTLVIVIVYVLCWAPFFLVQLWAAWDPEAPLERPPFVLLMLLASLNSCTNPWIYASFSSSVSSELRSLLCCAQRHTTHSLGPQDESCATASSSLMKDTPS
measured-metric: Ki (µM)

COc1ccc(C[C@@H](NC(=O)Cc2ccc(N=[N+]=[N-])cc2)C(=O)N[C@@H](Cc2ccccc2)C(=O)N[C@@H](CCC(N)=O)C(=O)N[C@@H](CC(N)=O)C(=O)N[C@@H](CCCNC(=N)N)C(=O)N2CCC[C@H]2C(=O)N[C@@H](CCCNC(=N)N)C(=O)N[C@@H](Cc2ccc(O)cc2)C(N)=O)cc1 (stereo in doubt; 18); 0.008

(1) Cc1nnc(-c2ccc(-c3ccccc3)cc2)n1-c1ccccc1OCCCCCCN1CCN(C)CC1
(2) Cc1ccn(-c2ccc(C(=O)N3CCC(F)(F)/C(=C\C(=O)NCc4ccccn4)c4ccccc43)c(Cl)c2)n1
(3) CC[C@@H](C)[C@@H]1/N=C(\S)[C@@H](Cc2ccccc2)NC(=O)[C@@H]2CCCN2C(=O)[C@@H](Cc2ccccc2)N(C)C(=O)[C@@H]2CCC=NN2C(=O)[C@H]2CCC=NN2C1=O
input: hey, can you rank those compounds up there by Ki? biggest number first please Please list each label once, in the requested order.
output: 1, 3, 2
